TARGET_OF_ASSAY: Broad substrate specificity ATP-binding cassette transporter ABCG2 (Homo sapiens, UniProt Q9UNQ0)
Sequence (Q9UNQ0 whole entry): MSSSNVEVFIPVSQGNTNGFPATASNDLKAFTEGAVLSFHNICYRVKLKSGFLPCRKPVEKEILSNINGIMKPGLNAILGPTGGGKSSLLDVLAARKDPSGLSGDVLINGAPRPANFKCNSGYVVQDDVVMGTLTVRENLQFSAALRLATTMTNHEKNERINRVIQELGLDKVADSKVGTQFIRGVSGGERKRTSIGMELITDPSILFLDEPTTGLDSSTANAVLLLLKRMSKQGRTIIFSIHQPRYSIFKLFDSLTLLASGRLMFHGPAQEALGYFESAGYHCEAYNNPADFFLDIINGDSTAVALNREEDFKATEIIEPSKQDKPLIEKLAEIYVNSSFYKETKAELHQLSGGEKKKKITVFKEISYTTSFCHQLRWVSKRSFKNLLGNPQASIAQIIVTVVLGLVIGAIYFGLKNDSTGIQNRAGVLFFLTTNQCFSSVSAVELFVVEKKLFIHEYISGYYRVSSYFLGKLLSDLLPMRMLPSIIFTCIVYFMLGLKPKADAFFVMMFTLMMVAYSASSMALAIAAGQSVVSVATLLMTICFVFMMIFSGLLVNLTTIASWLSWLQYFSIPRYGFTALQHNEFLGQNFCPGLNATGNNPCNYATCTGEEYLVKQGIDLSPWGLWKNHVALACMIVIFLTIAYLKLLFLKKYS
ATTRIBUTE_MEASURED: pIC50
Please note pIC50 is a logarithmic value: minus log10 of concentration in mol/L. Answer with that number alone.

Below: 5 compounds and their reported pIC50.
COMPOUND: COc1cc(O)c2c(=O)c(OC)c(-c3ccc(OC)c(O)c3)oc2c1 [AYANIN]
pIC50: 5.24

COMPOUND: CC(C)=CCc1c(O)c(CC=C(C)C)c2c(c1O)C(=O)C[C@@H](c1cc(O)cc(O)c1)O2
pIC50: 5.39

COMPOUND: COc1ccc([C@@H]2CC(=O)c3c(O)cc(O)c(CC=C(C)C)c3O2)cc1
pIC50: 4.65

COMPOUND: CC(C)=CCC/C(C)=C/Cc1c(O)cc(O)c2c1O[C@H](c1ccc(O)cc1)CC2=O [SOPHORAFLAVANONE A]
pIC50: 4.91

COMPOUND: CC(C)=CCC/C(C)=C/Cc1c(O)cc(O)c2c1O[C@H](c1cc(O)cc(O)c1)CC2=O
pIC50: 4.81

Let us examine a further case.
Input line: Field request: pIC50 | item: COc1ccc([C@@H]2CC(=O)c3c(O)cc(O)c(CC=C(C)C)c3O2)cc1O
Output line: 5.18

###

TARGET_OF_ASSAY: UniProt:Q9UNQ0
RUN_DESCRIPTION: Inhibition of ABCG2 expressed in human NCI-H460 cells assessed as increase in PhA accumulation after 2 to 20 hrs relative to fumitremorgin C
ATTRIBUTE_MEASURED: IC50 (µM)
Only the number, expressed in µM, is required.

See these solved cases before continuing.
SMILES_REPR: CC(C)=CCc1c(O)cc(O)c2c1O[C@H](c1ccc(O)cc1)CC2=O
IC50 [µM]: 3.1

SMILES_REPR: O=c1cc(-c2ccc(O)c(O)c2)oc2cc(O)cc(O)c12
IC50 [µM]: 8.9

SMILES_REPR: C/C(=C/Cc1c(-c2cc(O)c(O)cc2O)oc2c3c(cc(O)c2c1=O)OC(C)(C)C=C3)CO
IC50 [µM]: 6.5

SMILES_REPR: COc1cc(O)c2c(=O)c(OC)c(-c3ccc(O)c(OC)c3)oc2c1
IC50 [µM]: 17.2

Input line: Fill blank: measured IC50 of the compound COc1cc(O)c(CC=C(C)C)c(-c2oc3cc(O)cc(O)c3c(=O)c2OC)c1 is ____.
Output line: 8.4

Input line: Same read-out for COc1ccc2c3c([nH]c2c1)[C@H](C=C(C)C)N1C(=O)[C@@H]2CCCN2C(=O)[C@@H]1C3 ?
Output line: 0.8

Input line: # iterate: CC(C)=CCC/C(C)=C/Cc1c(O)cc2oc(-c3ccc(O)cc3)c(O)c(=O)c2c1O
Output line: 5.7
